experiment: Drug repurposing screens with cells derived from glioblastoma tumor samples (AID 1345199); conditions: GBM patient neurospheres viability, ATP luminescence, 48 h; at 46 µM (top of the series); tumour line A
Records with an inconclusive call do not appear.
Please use condition met for activity, negative = cell killing under -20% and condition not met for everything else, ties included.

Example cases with answers are listed next.
[[record]]
compound = "FC(F)(F)c1ccccc1-n1ccnc1"
assigned_category = "condition met"

[[record]]
compound = "C[C@]12CCC(=O)C=C1CC[C@@H]1[C@@H]2C(=O)C[C@@]2(C)[C@H]1CC[C@]2(O)C(=O)CO"
assigned_category = "condition not met"

[[record]]
compound = "CCN(CC)CC(=O)Nc1c(C)cccc1C"
assigned_category = "condition not met"

[[record]]
compound = "Cc1ccc(=O)n(-c2ccccc2)c1"
assigned_category = "condition not met"

[[record]]
compound = "COCCc1ccc(OCC(O)CNC(C)C)cc1 (stereo unspecified)"
assigned_category = "condition met"


Please look at the following compound next.
stdin: Determine whether this compound shows activity, negative = cell killing lower than -20% (ties excluded): `C[N+](C)(C)CCCCCCCCCC[N+](C)(C)C`
stdout: condition met

Origin of values: PubChem BioAssay (NCATS)
